Hey, just so you know, these numbers are from ChEMBL document CHEMBL1961873.

biological target: MAP/microtubule affinity-regulating kinase 3 (Homo sapiens) (UniProt P27448); settings: at 1 µM;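 note: reported values are averaged percent inhibition of MARK3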
Sequence (P27448 whole entry, looked up): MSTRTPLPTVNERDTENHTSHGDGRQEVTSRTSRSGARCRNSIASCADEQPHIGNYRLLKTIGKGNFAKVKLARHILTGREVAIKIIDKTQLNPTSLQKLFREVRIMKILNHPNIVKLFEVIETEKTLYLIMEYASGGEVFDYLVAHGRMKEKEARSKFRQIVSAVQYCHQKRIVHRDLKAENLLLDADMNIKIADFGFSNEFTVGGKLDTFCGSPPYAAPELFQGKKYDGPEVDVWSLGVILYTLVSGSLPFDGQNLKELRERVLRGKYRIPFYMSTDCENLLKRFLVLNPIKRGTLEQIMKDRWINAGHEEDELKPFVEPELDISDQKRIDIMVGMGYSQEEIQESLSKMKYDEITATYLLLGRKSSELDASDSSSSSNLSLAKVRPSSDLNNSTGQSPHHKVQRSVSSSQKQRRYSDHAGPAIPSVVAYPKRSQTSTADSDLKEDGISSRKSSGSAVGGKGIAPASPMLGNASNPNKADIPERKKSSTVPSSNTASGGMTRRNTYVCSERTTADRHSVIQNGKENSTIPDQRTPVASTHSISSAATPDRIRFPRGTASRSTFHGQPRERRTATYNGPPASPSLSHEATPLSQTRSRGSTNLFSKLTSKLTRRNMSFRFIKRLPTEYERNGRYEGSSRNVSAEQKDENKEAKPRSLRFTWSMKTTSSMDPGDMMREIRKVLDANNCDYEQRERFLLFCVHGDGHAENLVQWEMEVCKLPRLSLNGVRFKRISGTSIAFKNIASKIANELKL
Listed here: items and their measured inhibition.
ENDPOINT NAME: inhibition (%)

> print(dat)
                                entry.smiles  reading
 1  NC(=O)c1sc(-n2cnc3ccc(C(F)(F)F)cc32)cc1OCc1ccccc1Br     11.5
 2  COc1ccc(-c2cc(-c3c[nH]nc3-c3ccccn3)ccn2)cc1     5.51
 3  c1cc(-c2cnn3nc(N4CCOCC4)ccc23)nc(NC2CC2)n1     12.9
 4                CCn1c(-c2nonc2N)nc2ccccc21     22.2
 5   NS(=O)(=O)c1ccc(Nc2ncc(-c3ccccc3)o2)cc1     12.2
 6  COc1ccc2[nH]c3c4[nH]c5ccc(OC)cc5c4c4c(c3c2c1)C(=O)NC4=O     33.5
 7  CCN1CCC(CC(=O)Nc2n[nH]c3nnc(-c4cccc(F)c4F)cc23)CC1     2.57
 8  COC(=O)Nc1nc2ccc(S(=O)(=O)c3ccc(NC(=O)Nc4cc(C(F)(F)F)ccc4F)cc3)cc2[nH]1     0.83
 9  CCN(CC)S(=O)(=O)c1ccc(OC)c(Nc2ncc(-c3ccccc3)o2)c1     18.7
10  CC(C)COC(=O)c1ccc2c(c1)/C(=C/Nc1ccc(S(N)(=O)=O)cc1)C(=O)N2     88.7
11  COC(=O)c1sc(-n2cnc3cc(OC)c(OC)cc32)cc1OCc1ccccc1C(F)(F)F     3.04
12  COc1cc(N2CCN(C(C)C)CC2)ccc1Nc1nc(Nc2ccc(F)cc2C(N)=O)c2cc[nH]c2n1     67.4
13  CC(C)(CO)CNC(=O)c1ccc2c(c1)/C(=N/Nc1ccc(S(N)(=O)=O)cc1)C(=O)N2     36.6
14  CCOc1ccc2c(-c3ccnc(Nc4cccc(C(F)(F)F)c4)n3)cnn2n1     0.96
15  Fc1ccc(-c2cc(-c3c[nH]nc3-c3ccccn3)ccn2)cc1     0.81
16  CS(=O)(=O)CCNCc1coc(-c2ccc3ncnc(Nc4ccc(OCc5ccccc5)cc4)c3c2)c1      3.7
17  COc1ccc(-c2oc3ncnc(N)c3c2-c2ccc(NC(=O)Nc3cc(C(F)(F)F)ccc3F)cc2)cc1     5.58
18  O=C(Nc1n[nH]c2cc(-c3ccc(F)cc3)ccc12)C1CC1     4.76
19  COc1ccc(-c2nn3ncccc3c2-c2ccnc(Nc3ccc4c(c3)OCCO4)n2)cc1     1.83
20  CN(C)CCOc1ccc(-c2nc(-c3ccncc3)c(-c3ccc4c(c3)CC/C4=N\O)[nH]2)cc1     4.44
21  CS(=O)(=O)CCNCc1ccc(-c2ccc3ncnc(Nc4ccc(OCc5ccccc5)c(C(F)(F)F)c4)c3c2)o1     4.16
22  CCCN1CCC(c2ccc(Nc3nc(Nc4cc(F)ccc4C(N)=O)c4cc[nH]c4n3)c(OC)c2)CC1     66.6
23  CCn1c(-c2nonc2N)nc2cnc(Oc3cccc(NC(=O)c4ccc(N(C)C)cc4)c3)cc21     12.2
24  CCn1cc(-c2ccnc3[nH]ccc23)c(-c2cccc(NC(=O)Nc3ccc(OCc4ccccc4)cc3)c2)n1     2.97
25  COc1cc2c(cc1Nc1nc(Nc3ccsc3C(N)=O)c3cc[nH]c3n1)N(C(=O)CN(C)C)CCC2(C)C     7.59
26  CC(=O)Nc1cccc(C#Cc2cncnc2Nc2ccc(OCc3cccc(F)c3)c(Cl)c2)c1     4.64
27   Nc1nc(-c2ccc(F)cc2)c(-c2ccc3ncccc3n2)s1     3.12
28  CCCN(CCS(C)(=O)=O)Cc1ccc(-c2ccc3ncnc(Nc4ccc(OCc5cccc(F)c5)c(Cl)c4)c3c2)o1     -0.4
29       COc1cc(/C=N/Nc2ncnc3[nH]ncc23)ccc1O     30.6
30  COc1cc2ncn(-c3cc(OCc4ccccc4C(F)(F)F)c(C(=O)N(C)C)s3)c2cc1OC     3.36
31            Cc1cccc(Nc2ncc(-c3ccccc3)o2)c1     9.41
32          CCc1nn2ncccc2c1-c1ccnc(NC2CC2)n1     3.36
33  COC(=O)Nc1nc2ccc(Oc3ccc(NC(=O)Nc4cccc(Cl)c4)cc3)cc2[nH]1    -0.32
34  c1ccc(-c2nc3n(c2-c2ccc4c(c2)OCO4)CCC3)nc1     4.15
35  NS(=O)(=O)c1ccc(N/N=C2\C(=O)Nc3ccc4ncccc4c32)cc1     40.9
36  CCn1c(-c2nonc2N)nc2c(C#CC(C)(C)O)ncc(OC3CCNCC3)c21     77.7
37  c1ccc(COc2ccc(Nc3ncnc4ccc(-c5ccco5)cc34)cc2)cc1      3.2
38  FC(F)(F)c1cccc(-c2nn3ncccc3c2-c2ccnc(Nc3ccc4c(c3)OCCO4)n2)c1     3.45
39       N#Cc1c(NC(=O)c2ccc(F)cc2)sc2c1CCCC2     1.66
